From: patent US9693997B2

- System: Pseudotyped HCV GT1b particles (HCVpp), entry into Huh7-high CD81 cells
- assay_method_text: microbe, parasite or virus in culture
- Assay type: cell-based, HCV GT1b Con1 strain
- experimental_setup: Hepatitis C virus, GT1B, 72 h, read-out: HCVpp GT-1b (EC50, μM)
readout_kind: EC50 (µM)
Form entry: value (µM) — number only.

Solved entries:
Query block: Recorded EC50 for CN(C)S(=O)(=O)c1ccc(-c2c(F)cc(Nc3nc(N)n[nH]3)cc2C(F)(F)F)cc1 [Compound 75] , please?
Result block: 0.164

Query block: Now the same for Nc1n[nH]c(Nc2cc(F)c(-c3ccc(S(=O)(=O)C(F)(F)F)cc3)c(C(F)(F)F)c2)n1 [Compound 88]
Result block: 1.95

Query block: // repeat for Nc1nc(Nc2cc(Cl)c(-c3ccc(F)c(C(=O)NCCO)c3)c(C(F)(F)F)c2)n[nH]1 [Compound 294] and report
Result block: 0.544

---
Query block: Quick one: EC50 for CS(=O)(=O)c1ccc(-c2c(F)cc(Nc3nc(N)n[nH]3)cc2C(F)(F)F)cc1 [Compound 70] ?
Result block: 0.064
